B1: glmS ribozyme (parent)
chain: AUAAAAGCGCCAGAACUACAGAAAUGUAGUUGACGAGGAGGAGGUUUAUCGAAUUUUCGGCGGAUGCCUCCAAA

variants of: B1; experiment: self-cleavage kobs at 640 uM GlcN6P; higher = faster cleavage; RNA array; settings: with glucosamine-6-phosphate
Fewer inactive variants are shown than the library holds.
RECORDED_ENDPOINT: self-cleavage kobs at 640 uM GlcN6P (s⁻¹)

>>> result_value("AUAAAAGCGCCAGACCUACAGAAAUGUAGCUGACGAGGAGGAGGUUUAUCGAAUUUUCGGCGGAUGCCUCCAAA")
"8.27e-05"
>>> result_value("AUAAAAGCGCCAGAACUACAGAAAUGUAGUUGACGAGGAUGAGGUUAAUCGAAUUUUCGGCGGAUGCCUCCAAA")
0.000565
>>> result_value("AUAAAAGCGCCAGAACUACAGAAAUGUAGUUCACGUGGAGGAGGUUUAUAGAAUUUUCGGCGGAUGCCUGCAAA")
0.000332
>>> result_value("AUAAAAGCGCCAGAACUACAGACAUGUAGUUGACGAGGAGGAGGUUUAUCGAAUUUUCGGCGGAUGCUUCCAAA")
0.00205
>>> result_value("AUAAAAGCGGAAGAACUACAGAAAUGUAGUUGACGAGGAGGAGGUUUAUCGAAUUUUGGGCGUAUGCAUCCAAA")
0.000138
>>> result_value("AUAAAAGCGCCAGAACUACAGAAAUGUAGUUGACGAGGAGGAGCUUUAUCGAAGUUUCGGCGGAUGCCUCCAAA")
"4.75e-05"
>>> result_value("AUAAAAGCGCCAGAACUACAGAAAUGUAGUUGACGAGGAUGAGGUUUAUCGAACUUUCGGCGGAUGCCUCCAAA")
0.000738
>>> result_value("AUAAAAGCGCCAGAACUACAGAAAUGUAUUUGACGAGGAGGAGGUUUAUCGAAUUUUCGGCGGAAGCGUCCAAA")
"6.79e-05"
>>> result_value("AUAAAAGCGCCAGACCUACAGAAAUGUAGUUGACGAGGACGAGGUUUAUCGAAUUUUCGGCGGAUGCCUCCAAA")
0.000109
>>> result_value("AUAAAAGCGUCAGAACUACAGAAAUGUAGUUGACGAGGAGGAGGUUUAUCGAAUUUUCGGCGGAUGCCGCCAAA")
"2.55e-05"
>>> result_value("AUAAAAGCGCCAGAACUACAGAAAUGUAGUUGACGAGGAGGAGGUUUAUCGAAUUUUAGGCGGAUGCCACCAAA")
"9.55e-05"
>>> result_value("AUAAAAGCGCCAGAACUACAGAAAUGUAGUUGACGAGGAGGAGGGUUAUCGAAUUUUCGGCGGGUGCCUCCAAA")
0.00161
>>> result_value("AUAAAAGCGCCAGAACUACAGAAAUGUAGUUGACGAGGAGGAGGUUCAUCGAAUUUUCGGCGGAUGCCUGCAAA")
0.000172
>>> result_value("AUAAAAGCGCCAGAACUACAGAAAUGUAGUUGACGAGGAGGACGUUUAUCGAAUUUUCGGCGGAUGGCUCCAAA")
0.000186
>>> result_value("AUAAAAGCGCCAGAACUACAGAAAUGUAGAUGACGAGGAGGAGGUUUAUCGAACUUUCGGCGGAUGCCUCCAAA")
0.00174
>>> result_value("AUAAAAGCGCCAGAACUACAGAAAUGUAGUUGACGAGGAGGAGGUUUAUCGAAUUUUCGGCGGAUUCAUCCAAA")
"9.21e-05"
>>> result_value("AUAAAAGCGCCACAACUACAGAAAUGUAGUGGACGAGGAGGAGGUUUAUCGAAUUUUCGGCGGAUGCCUUCAAA")
"4.2e-05"
>>> result_value("AUAAAAGCGCCAUAACUACAGAAAUGUAGUUGACGAGGAGGGGGAUUAUCGAAUUUUCGGCGGAUGCCUCCAAA")
0.000169
>>> result_value("AUAAAAGCGCCAGAACUACAGAAAUGUAGUUAACGAGGAGGAGGUUUAUCGAAUUUUCGGCGGAUGCCUACAAA")
"8.06e-05"
>>> result_value("AUAAAAGCGCCCGAACUACAGAAAUGUAGUUGACGAGGAGGAGGUUUAUCGAAUUGUCGGCGGAUUCCUCCAAA")
0.000122
>>> result_value("AUAAAAGCGCCAGCACUACAGAAAUGUAGUUGACGAGGAAGAGGUUUAUCGAAUUUUCGGCGGAUGCCUCCAAA")
0.000371
>>> result_value("AUAAAAGCGCCAGUACUACAGAAAUGUAGUUGACGAGGAGGAGGUUUAUCGAAUUUUCGGCGGACGCCUCCAAA")
"3.59e-05"
>>> result_value("AUAAAAGCGCCAAAAUUACAGAAAUGUAGUUGACGAGGAGGAGGUUUAUCGAAUUUUCGGCGGAUGCCUCCAAA")
0.000172
